- subject_of_test: T1, mouse MAdCAM (mouse, UniProt Q61826 22-365, limits assumed)
- T1 construct: also called mouse MAdCAM-1; muMAdCAM
- T1 sequence (looked up): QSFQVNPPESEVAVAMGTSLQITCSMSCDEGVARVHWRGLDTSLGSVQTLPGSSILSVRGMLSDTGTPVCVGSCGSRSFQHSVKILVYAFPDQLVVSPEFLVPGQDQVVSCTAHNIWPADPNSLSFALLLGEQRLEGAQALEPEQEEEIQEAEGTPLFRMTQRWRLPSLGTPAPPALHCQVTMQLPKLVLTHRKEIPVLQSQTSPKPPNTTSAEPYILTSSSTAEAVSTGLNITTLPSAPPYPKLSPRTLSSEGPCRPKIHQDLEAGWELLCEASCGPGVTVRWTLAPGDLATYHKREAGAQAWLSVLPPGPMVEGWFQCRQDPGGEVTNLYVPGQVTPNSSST
- assay_comment: BLI (Octet), binder on anti-human Fc tips
In this section we review reported Kd values for a set of binders.
Quick note: give the figure in nM, leave out the unit.

Worked examples follow.
[
  {
    "binder": "MIAB13 (antibody, V domains shown, tested with human Fc) VH: EVQLLESGGGLVQPGGSLRLSCAASGFTFDDYAMHWVRQAPGKGLEWVASITSSSAFIDYADSVKGRFTISRDNSKNTLYLQMNSLRAEDTAVYYCARERVLWNSYFDLWGQGTLVTVSS VL: EIVMTQSPATLSVSPGERATLSCRASQNVNNNLAWYQQKPGQAPRLLIYDATTRATGIPARFSGSGSGTEFTLTISSLQSEDFAVYYCQQYYHWPQTFGQGTKVEIK",
    "obs_value": 6.6
  },
  {
    "binder": "MIAB25 (antibody, V domains shown, tested with human Fc) VH: EVQLLESGGGLVQPGGSLRLSCAASGFIFDDYAMHWVRQAPGKGLEWVASITSSSAFIDYADSVKGRFTISRDNSKNTLYLQMNSLRAEDTAVYYCARERVDWFSYFDLWGQGTLVTVSS VL: EIVMTQSPATLSVSPGERATLSCRASQSVSNNLVWYQQKPGQAPRLLIYDASTRATGIPARFSGSGSGTEFTLTISSLQSEDFAVYYCQQYSHWPPTFGQGTKVEIK",
    "obs_value": 131
  },
  {
    "binder": "MIAB207 (antibody, V domains shown, tested with human Fc) VH: EVQLLESGGGLVQPGGSLRLSCAASGFTFDDYAMHWVRQAPGKGLEWVASITSSSAFIDYADSVKGRFTISRDNSKNTLYLQMNSLRAEDTAVYYCARERVDWNSYFDLWGQGTLVTVSS VL: EIVMTQSPATLSVSPGERATLSCRASQSVYSNLVWYQQKPGQAPRLLIYRASTRATGIPARFSGSGSGTEFTLTISSLQSEDFAVYYCQQYHIWPPTFGQGTKVEIK",
    "obs_value": 24
  },
  {
    "binder": "MIAB209 (antibody, V domains shown, tested with human Fc) VH: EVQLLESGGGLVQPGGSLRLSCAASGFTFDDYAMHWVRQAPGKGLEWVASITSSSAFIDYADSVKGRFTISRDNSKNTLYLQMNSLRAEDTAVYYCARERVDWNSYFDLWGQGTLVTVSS VL: EIVMTQSPATLSVSPGERATLSCRASQSVYSNYLAWYQQKPGQAPRLLIYRASTRATGIPARFSGSGSGTEFTLTISSLQSEDFAVYYCQQYSHWPPTFGQGTKVEIK",
    "obs_value": 35.2
  }
]

Shifting focus to the binder that follows.
Data request: Suppose we examine the binder MIAB122 (antibody, V domains shown, tested with human Fc) VH: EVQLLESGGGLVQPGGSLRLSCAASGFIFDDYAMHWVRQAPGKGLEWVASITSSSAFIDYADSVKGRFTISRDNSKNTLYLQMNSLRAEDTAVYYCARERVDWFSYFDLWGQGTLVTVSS VL: EIVMTQSPATLSVSPGERATLSCRACPSVSNNYLVWYQQKPGQAPRLLIYDASTRATGIPARFSGSGSGTEFTLTISSLQSEDFAVYYCQQYSHWPPTFGQGTKVEIK ; what Kd value has been reported?
Data returned: 130
